# Protocol notes: Human HepG2 cell viability assay in 384 well format
# Assay type: toxicity, cell-based
# Parameters: dose 125 nL, time 70.5 hour; concentration not given beside the values
# Experimental context: HepG2 cells, read-out: Inhibition
Result type: cytotoxicity at 70.5 h (%)

> print(dat)
                                    compound  endpoint.unit  observed
 1  CC(C)(C)OC(=O)NC(C)(C)c1noc(CN2CCCCC2)n1              %     -3.07
 2  COCCCNC(=O)CN(C)C(=O)c1ccc(-n2cccc2)cc1O              %    -0.626
 3  CNC(=O)C1Cn2ccnc2C2(CCN(c3ccc(C)nn3)CC2)O1 (configuration not stated)              %    -0.593
 4        CN1CC2(CCN(CCCOCc3ccccc3)CC2)OC1=O              %     -9.74
 5      CC(C)(C)C(=O)NCCNCc1ccc(Cl)c2cccnc12              %    -0.239
 6  O=C(CCC1CCCO1)NCc1ccnc(-n2cccn2)c1 (configuration not stated)              %      23.5
 7            COc1ccccc1OCC(=O)n1ncc(C#N)c1N              %      9.32
 8      O=C(Cc1ccon1)N1CCN(c2ccc(F)cc2Cl)CC1              %     -6.01
 9  CS(=O)(=O)N1CCN(C(=O)Cn2ccc3c(Cl)cccc32)CC1              %      8.68
10  Cc1ccc(C(=O)N2CCC3(CC2)CN(c2ccccn2)CCO3)cc1              %     -8.31
11      Cc1noc(-c2cnc(NC(C)C)nc2-c2ccco2)c1C              %     -13.3
12  CC(C)C[C@@H](CO)n1cc(-c2cnc(-c3ccco3)nc2)nn1              %     -6.45

====

# Protocol notes: Human HepG2 cell viability assay in 384 well format
# Assay type: toxicity, cell-based
# Design: dose 125 nL, time 70.5 hour; concentration not given beside the values
# Experimental context: HepG2 cells, read-out: Inhibition
Result type: cytotoxicity at 70.5 h (%)

> print(dat)
                                    compound  observed
 1                     O=C(COCC1CC1)N1CCSCC1      2.26
 2  CCC(CO)NC(=O)Nc1cc(F)ccc1Br (stereo not given)     -9.27
 3    CC(C)NC(=O)N1CCC(n2ccc(C(F)(F)F)n2)CC1      1.15
 4     O=C(CN1C=Nc2ccccc2S1(=O)=O)NCCc1cccs1      1.55
 5  Cc1nc(C(=O)N2CCCC(c3cc(C(F)(F)F)[nH]n3)C2)c[nH]1 (stereo not given)     -6.23
 6               CCc1csc(NC(=O)NCc2ccccn2)n1      -2.4
 7              Cc1cccc(C)c1NCc1noc(C2CC2)n1     0.946
 8     CCCc1nnc(N2C[C@@H](C)[C@@](C)(O)C2)s1        12
 9  Cc1cccc(OCc2nnc(SCC3CCCN(C)C3)o2)c1 (stereo not given)     -5.28
10     COc1ccccc1CN(Cc1cccnc1)Cc1c[nH]c(C)n1      8.36
11          Cc1cnn(CCNCc2nc(Cc3ccccc3)no2)c1     -5.53
12     OC[C@H]1CCN(Cc2ccc3ccccc3n2)C[C@@H]1O     -4.84
13  CC(=O)N1CCC2(CC1)[C@@H]1CN(C(=O)N(C)C)C[C@@H]1C(=O)N2C      -7.5
14  Cn1c(CN2CCOCC2)nnc1C1CCCN(C(=O)CCC2CC2)C1 (stereo not given)     -6.43
15  COC(=O)c1ccc(-c2cc(C(F)(F)F)cc(N(C)C)n2)cc1     -6.66
16       CC(C)c1nsc(N2CCC(OCCN3CCOCC3)CC2)n1     -22.2
17       Cn1nc2c(cc1=O)CN(CCOc1ccccc1C#N)CC2        35
18        COc1cc(Cl)c(NC(=O)NCCn2cccc2)cc1OC     -4.58
19  CC(NC(=O)NCCCN(C)S(C)(=O)=O)c1ccc(C#N)cc1 (stereo not given)     -4.16
20            Nc1nc(Nc2ccccc2)cc(N2CCNCC2)n1     -3.76
21  Cc1cccc(CNC2CCCc3c2cnn3C)c1 (stereo not given)     -6.91
22  CCc1nnc(CN(C)C(=O)CN2CC(c3ccccc3)CC2=O)o1 (stereo not given)     -4.25
23  c1cnc(N2CCO[C@H]3[C@H](OCC4CC4)CC[C@@H]32)nc1     -7.29
24  Cc1nc[nH]c1-c1nc2cc(S(=O)(=O)N3CCCC3)ccc2n1C     -2.05
25   Cc1ccc(CN2CCc3c(C(=O)N(C)C)nn(C)c3C2)s1     -5.06

====

# Protocol notes: Human HepG2 cell viability assay in 384 well format
# Assay type: toxicity, cell-based
# Design: dose 125 nL, time 70.5 hour; concentration not given beside the values
# Experimental context: HepG2 cells, read-out: Inhibition
Result type: cytotoxicity at 70.5 h (%)

> print(dat)
                                    compound             result.type  observed
 1  CC1(C(=O)N2CCOCC2)CN(Cc2ccccc2F)CCO1 (stereo unspecified)  cytotoxicity at 70.5 h     -11.3
 2    CSc1ccccc1NC(=O)CCN1CCC(C(=O)N(C)C)CC1  cytotoxicity at 70.5 h      2.74
 3    COc1ccc(OC)c(-n2c(COC(C)C)n[nH]c2=O)c1  cytotoxicity at 70.5 h     -4.44
 4  CN(Cc1cn2c(n1)CN(Cc1ccc(F)cc1)CC2)Cc1ccco1  cytotoxicity at 70.5 h     -8.36
 5  CCC(CNC1CCN(C(=O)N(C)C)CC1)Oc1ccccc1C (stereo unspecified)  cytotoxicity at 70.5 h      27.1
 6    COc1ccc(Cl)cc1NCC(=O)N(Cc1ccncc1)C1CC1  cytotoxicity at 70.5 h      15.5
 7  Cc1noc(C)c1CN1CC[C@H]2OCC[C@@H](C(=O)N3CCCO3)[C@H]2C1  cytotoxicity at 70.5 h     -2.47
 8  O=C(c1cnc(Nc2ccccc2)nc1)N1CCC2(CCNCC2)CC1  cytotoxicity at 70.5 h     -13.5
 9  Cc1nn(C)c(N(C)C)c1CNCC(O)c1ccccc1F (stereo unspecified)  cytotoxicity at 70.5 h     -15.4
10  CCOc1ncccc1NC(=O)NC1CCCN(c2ncccn2)C1 (stereo unspecified)  cytotoxicity at 70.5 h     -2.86
11  CC(NS(=O)(=O)CCCC#N)c1cccc(-n2cccn2)c1 (stereo unspecified)  cytotoxicity at 70.5 h     -10.5

====

# Protocol notes: Human HepG2 cell viability assay in 384 well format
# Format: toxicity, cell-based
# Set-up: dose 125 nL, time 70.5 hour; concentration not given beside the values
# Experimental context: HepG2 cells, read-out: Inhibition
Result type: cytotoxicity at 70.5 h (%)

> print(dat)
                                    compound             result.type  endpoint.unit  observed
 1  CCC[C@@H]1CN(c2ncnc3sccc23)C[C@H]1C(=O)O  cytotoxicity at 70.5 h              %     -5.95
 2  Cc1ccc(CN(C)C(=O)CN2CCCCC2Cn2cncn2)cc1 (configuration not stated)  cytotoxicity at 70.5 h              %      22.7
 3          Cc1nc2ccnn2c(C)c1CCC(=O)N1CCSCC1  cytotoxicity at 70.5 h              %     -6.09
 4  CN(C)S(=O)(=O)Nc1ccc(-n2nncc2C(F)(F)F)cc1  cytotoxicity at 70.5 h              %      3.32
 5  O=C1CCSCC(C(=O)N2CCC3(CC2)OCCO3)N1 (configuration not stated)  cytotoxicity at 70.5 h              %     -14.2
 6  Cc1cn2c(n1)CCC(NC(=O)c1cc(C3CC3)[nH]n1)C2 (configuration not stated)  cytotoxicity at 70.5 h              %     -4.74
 7   Cc1ccc(C(=O)N(C)CCOc2ccccc2F)c(=O)[nH]1  cytotoxicity at 70.5 h              %      -5.2
 8    CN(C)c1ccc(CNC(=O)NCCc2cn3ccccc3n2)cn1  cytotoxicity at 70.5 h              %     -3.45
 9  O=C(CC[C@@H]1CCCN2CCCC[C@H]12)NCCc1nc(O)cc(O)n1  cytotoxicity at 70.5 h              %      -5.7
10  CCOc1cc(C)nc(N2CCN(C(=O)c3ccc[nH]3)CC2)n1  cytotoxicity at 70.5 h              %     -7.65
11  CCc1cnc(NCC2OCCc3ccccc32)nc1 (configuration not stated)  cytotoxicity at 70.5 h              %      3.74
12  CC(C)n1nnc2c(sc3nc(N4CCOCC4)c4c(c32)CCC4)c1=O  cytotoxicity at 70.5 h              %     -13.1

# credit: ChEMBL document CHEMBL3507680
